As shown below, each of these compounds has a reported pIC50 value.
procedureSummary: Inhibition of pig pancreatic cholesterol esterase assessed as p-nitrophenylbutyrate hydrolysis after 1 min
Set-up: species or system Sus scrofa
Units for pIC50: none; it is -log10 of a concentration expressed in mol/L.

Completed entries (count: 4):
CCOP1(=O)OC(c2ccc(CC)cc2)=C(Br)c2ccc(Cl)cc21 (centres undefined) : 5.19
CCOP1(=O)OC(c2ccccc2)=C(I)c2ccccc21 (centres undefined) : 4.52
CCOP1(=O)OC(c2ccccc2)=Cc2ccc(OC)cc21 (centres undefined) : 4.11
CCOP1(=O)OC(c2ccc(CC)cc2)=C(Cl)c2ccc(Cl)cc21 (centres undefined) : 5.05

q: So what does the record say about pIC50 for "O=P1(O)OC(c2ccccc2)=Cc2ccc(Cl)cc21" ?
a: 4.41

q: Same thing, different compound: CCOP1(=O)OC(c2ccc(CC)cc2)=C(I)c2ccc(Cl)cc21 (centres undefined)
a: 5.32

* * *

Measured pIC50 values are reported for all entries that follow.
procedureSummary: Inhibition of pig pancreatic cholesterol esterase assessed as p-nitrophenylbutyrate hydrolysis after 1 min
Design: species or system Sus scrofa
pIC50: −log10 of the molar value.

CCOP1(=O)OC(C2CC2)=C(Cl)c2ccc(OC)cc21 (stereo not drawn) : < 3.82

q: Data request, read-out pIC50, for CCOP1(=O)OC(c2ccc([N+](=O)[O-])cc2)=Cc2ccc(Cl)cc21 (stereo not drawn)
a: < 4.00

q: Same lookup for CCOP1(=O)OC(C2CC2)=C(Cl)c2ccc(Cl)cc21 (stereo not drawn) , please.
a: < 4.00
